Just for reference, patent US4585866A is where these values come from.

Molecular target: rabbit heart (5-HT M receptor) (Oryctolagus cuniculus)
Construct: RABBIT HEART; from tissue; host or cells: rabbit heart
Sequence (A0A5F9C9J3 1-494): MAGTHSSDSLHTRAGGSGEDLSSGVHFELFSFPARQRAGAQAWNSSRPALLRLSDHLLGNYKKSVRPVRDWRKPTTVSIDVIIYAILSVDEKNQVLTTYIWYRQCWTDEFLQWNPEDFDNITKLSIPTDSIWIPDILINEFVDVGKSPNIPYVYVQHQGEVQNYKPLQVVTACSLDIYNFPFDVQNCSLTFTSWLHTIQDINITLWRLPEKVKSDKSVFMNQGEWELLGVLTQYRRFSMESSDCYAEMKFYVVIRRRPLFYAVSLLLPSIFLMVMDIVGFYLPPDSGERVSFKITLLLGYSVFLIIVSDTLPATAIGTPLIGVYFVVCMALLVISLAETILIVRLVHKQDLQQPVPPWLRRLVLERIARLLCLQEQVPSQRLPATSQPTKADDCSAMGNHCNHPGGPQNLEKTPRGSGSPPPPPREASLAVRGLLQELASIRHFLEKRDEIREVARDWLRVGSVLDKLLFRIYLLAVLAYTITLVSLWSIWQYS
Assay: Inhibition of standard response to 5-HT, rabbit heart
Assay type: cell-based
Experimental Readout: IC50 (nM)
Answer in nM, number only, no unit symbol.

[in] Given CN1[C@@H]2CC[C@H]1C[C@@H](OC(=O)c1cc(Cl)cc(Cl)c1)C2 [tropyl 3,5-dichlorobenzoate] , respond with its IC50.
[out] 0.82
